Parameter: Activation 100 nL. Scope: all listed entries.
Biological target: Nrf2-Keap1 complex (Homo sapiens, UniProt Q14145)
Sequence (Q14145 whole entry, one chain of several): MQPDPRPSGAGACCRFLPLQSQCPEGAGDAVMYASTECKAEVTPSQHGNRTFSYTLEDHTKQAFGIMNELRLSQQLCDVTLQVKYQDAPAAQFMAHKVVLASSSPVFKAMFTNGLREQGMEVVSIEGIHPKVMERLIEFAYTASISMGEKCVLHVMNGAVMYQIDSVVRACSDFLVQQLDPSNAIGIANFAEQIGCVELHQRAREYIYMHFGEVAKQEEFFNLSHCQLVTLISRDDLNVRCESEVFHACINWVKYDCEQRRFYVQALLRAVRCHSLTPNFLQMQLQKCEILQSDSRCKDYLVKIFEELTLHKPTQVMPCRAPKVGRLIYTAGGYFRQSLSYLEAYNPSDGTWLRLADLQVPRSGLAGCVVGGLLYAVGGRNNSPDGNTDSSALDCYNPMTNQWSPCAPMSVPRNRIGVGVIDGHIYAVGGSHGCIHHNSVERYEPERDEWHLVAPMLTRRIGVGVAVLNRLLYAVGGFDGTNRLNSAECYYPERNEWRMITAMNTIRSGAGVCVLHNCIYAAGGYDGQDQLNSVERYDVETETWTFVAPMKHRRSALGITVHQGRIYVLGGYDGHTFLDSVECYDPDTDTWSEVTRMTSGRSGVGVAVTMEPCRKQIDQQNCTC
Experiment: cell-based
Format: cell-based

- molecule: "CC(=O)Oc1cc2c(cc1OC(C)=O)[C@@H]1c3ccc(OC(C)=O)c(OC(C)=O)c3OC[C@]1(OC(C)=O)C2 [HAEMATOXYLINPENTAACETATE]"
  Activation 100 nL [%]: 50
- molecule: "COC(=O)c1cc(OC)c(=O)c2c(OC)c(OC)ccc2c1"
  Activation 100 nL [%]: 516
- molecule: "COc1ccc2c(c1)OCC(=Cc1ccc(O)c(O)c1)C2=O"
  Activation 100 nL [%]: 292
- molecule: "CC(=O)O[C@@H]1CC2C(C)(C)C(=O)C3OC3[C@]2(C)C2CC[C@@]3(C)[C@H](c4ccoc4)OC(=O)C4OC43[C@@]21C (stereo partly shown)"
  Activation 100 nL [%]: 28
